Where do these numbers come from? They come from the supplement of paper PMC10567573.

Reported protein stability index is given for each of the following variants.
B1: ZNF649 (parent)
chain: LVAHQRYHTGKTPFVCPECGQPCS

variants of: B1; assay: protein stability index of a GFP-peptide fusion (GPS, HEK-293T) (PSI 1-6); higher = more stable; conditions: c terminus: a fixed tail appended;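 also: lentivirally expressed fusions sorted by FACS into six bins by GFP to DsRed ratio, PSI derived from sequencing read proportions per bin multiplied by bin number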
Returns: the value as a bare number; no unit string appended.

H4F; 2.76
G20C; 2.74
C23M; 2.54
V15S; 3.19
T9D; 3.77
Q21K; 3.19

Which protein stability index is listed for G20V ?
2.47

Query: protein stability index; subject: P17K
3.37

Consider the variant shown here: F14L What is its recorded protein stability index?
3.7

Would you kindly share the measured protein stability index for V2Q ?
3.62
